Assay: Cytotoxicity against human HT-29 cells
Type: cell-based
MEASURE NAME: CC50

Input N=c1n(CCOc2ccccc2)c2ccccc2n1CCN1CCCCC1 . Output CC50: 42 µM

* * *

Assay: Distribution coefficient, log D of the compound at pH 7.4
Type: physicochemical
Details: octanol/water
Entries and their logD values follow.
# output: bare number, no unit

MOLECULE	MEASURE NAME	QUANTITATIVE RESULT
CCc1ccc2c(C)nc(NC3=NC(C)(C)C=C(C)N3)nc2c1	logD	0.7
CCc1ccc2c(C)nc(NC3=NC(C)(C)CC(C)=N3)nc2c1	logD	3.6

# context switch: different molecule, same logD
Quick note, logD for CN1C2CCC1CC(=NOC(c1ccccc1)c1ccc(Cl)cc1)C2 (stereo not drawn) landed at 2.9

* * *

Assay: Cytotoxicity against rat L6 cells
Type: cell-based
The following compounds are listed with their measured CC50 values.
Give the value in µM but do not write µM after it.

COMPOUND	MEASURE NAME	QUANTITATIVE RESULT
CN1/C(=C/C=C2\C=Nc3ccccc32)C=Cc2ccccc21	CC50	14
Cc1cc(C)c2c(C)nc(Nc3nc(C)cc(C)n3)nc2c1	CC50	11
CN1C2CCC1CC(=NOC(c1ccccc1)c1ccc(Cl)cc1)C2 (configuration not stated)	CC50	35
CC1=CC(C)(C)N=C(Nc2nc(C)c3cc(C)cc(C)c3n2)N1	CC50	10
COc1nncc(-c2cnnc(SC)n2)n1	CC50	30

compound S=C(Nc1cccnc1)NC1CCN(Cc2ccccc2)CC1 , CC50 observed: 90

* * *

Molecular target: UniProtKB P28593
Sequence (P28593 whole entry): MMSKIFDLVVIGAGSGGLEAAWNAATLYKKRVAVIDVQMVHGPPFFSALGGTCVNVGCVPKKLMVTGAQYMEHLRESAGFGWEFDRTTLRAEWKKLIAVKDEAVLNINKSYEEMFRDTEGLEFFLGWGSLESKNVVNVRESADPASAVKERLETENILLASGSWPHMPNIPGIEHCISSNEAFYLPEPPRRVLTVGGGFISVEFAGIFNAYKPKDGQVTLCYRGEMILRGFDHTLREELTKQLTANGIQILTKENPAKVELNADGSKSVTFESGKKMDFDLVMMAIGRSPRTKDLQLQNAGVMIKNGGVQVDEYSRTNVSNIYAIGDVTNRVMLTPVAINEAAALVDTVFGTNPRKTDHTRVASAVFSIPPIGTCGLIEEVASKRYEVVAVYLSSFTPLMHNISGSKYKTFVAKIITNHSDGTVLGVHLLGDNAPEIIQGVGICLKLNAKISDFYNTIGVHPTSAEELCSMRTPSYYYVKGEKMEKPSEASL
Assay: Inhibition of Trypanosoma cruzi trypanothione reductase assessed as inhibition of thionitrobenzoate formation by microplate reader analysis
MEASURE NAME: IC50

These solved cases illustrate the format of a correct answer.
MOL SMILES	MEASURE NAME	RESULT
CCCNC(=S)NC1CCN(Cc2ccccc2)CC1	IC50	> 100 µM
O=C(Nc1cccnc1)NC1CCN(Cc2ccccc2)CC1	IC50	> 100 µM
CCN1CCC(NC(=S)Nc2cccnc2)CC1	IC50	> 100 µM

Consider the additional compound presented here.
Per the record, S=C(Nc1ccccc1)NC1CCN(Cc2ccccc2)CC1 has IC50 of 33 µM

* * *

Each record here notes measured solubility.
Test: Solubility of the compound at pH 2
Type: physicochemical
Conditions: buffer

MOLECULE	solubility
CN1C2CCC1CC(=NOC(c1ccccc1)c1ccc(Cl)cc1)C2 (stereo not drawn)	> 100 µM
CCc1ccc2c(C)nc(NC3=NC(C)(C)C=C(C)N3)nc2c1	> 100 µM

Next up:
Record CCc1ccc2c(C)nc(NC3=NC(C)(C)CC(C)=N3)nc2c1 , field solubility: > 100 µM

* * *

Test system: Leishmania donovani
Experiment: Antiprotozoal activity against Leishmania donovani MHOM/ET/67/L82 amastigotes
Type: functional, organism-based
Quick list: pIC50 per entry.
The read-out pIC50 is expressed as -log10 of concentration in moles per litre.

These solved cases illustrate the format of a correct answer.
MOL SMILES	MEASURE NAME	QUANTITATIVE RESULT
CC1=CC(C)(C)N=C(Nc2nc(C)c3cc(C)cc(C)c3n2)N1	pIC50	4.85
COc1nncc(-c2cnnc(SC)n2)n1	pIC50	5.10
CN1/C(=C/C=C2\C=Nc3ccccc32)C=Cc2ccccc21	pIC50	5.52

Kindly consider the entry below.
What the record says about Cc1cc(C)c2c(C)nc(Nc3nc(C)cc(C)n3)nc2c1 : pIC50 is 4.49

These entries and their values trace back to ChEMBL document CHEMBL1649477.
